These measurements were taken from ChEMBL document CHEMBL5325469.

molecular target: Signal transducer and activator of transcription 3 (Homo sapiens, UniProt P40763)
Sequence (P40763 whole entry): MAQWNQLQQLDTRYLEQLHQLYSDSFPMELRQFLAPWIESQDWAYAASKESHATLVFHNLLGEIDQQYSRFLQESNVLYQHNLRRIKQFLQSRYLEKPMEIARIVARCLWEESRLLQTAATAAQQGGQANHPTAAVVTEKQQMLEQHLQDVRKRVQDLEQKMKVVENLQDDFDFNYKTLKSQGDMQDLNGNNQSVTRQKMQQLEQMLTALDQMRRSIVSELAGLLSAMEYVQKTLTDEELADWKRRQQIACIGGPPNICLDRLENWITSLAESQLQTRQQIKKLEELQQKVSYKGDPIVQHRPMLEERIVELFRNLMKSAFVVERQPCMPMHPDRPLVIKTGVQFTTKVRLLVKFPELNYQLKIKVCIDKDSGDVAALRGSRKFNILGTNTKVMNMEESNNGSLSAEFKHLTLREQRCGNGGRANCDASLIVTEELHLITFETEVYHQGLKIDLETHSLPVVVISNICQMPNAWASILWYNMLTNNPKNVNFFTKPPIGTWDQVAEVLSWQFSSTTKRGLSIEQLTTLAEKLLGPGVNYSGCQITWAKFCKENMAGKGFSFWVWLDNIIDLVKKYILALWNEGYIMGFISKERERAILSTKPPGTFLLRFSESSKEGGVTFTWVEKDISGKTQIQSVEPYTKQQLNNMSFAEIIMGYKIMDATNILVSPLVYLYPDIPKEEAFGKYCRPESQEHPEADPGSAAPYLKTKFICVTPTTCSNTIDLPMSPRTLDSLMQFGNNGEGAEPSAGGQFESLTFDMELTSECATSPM
observed property: pIC50
pIC50 here: minus log base 10 of the concentration, concentration in moles per litre.

Test item `C=CN(c1cccc2ccccc12)S(=O)(=O)c1ccc(OC)cc1` ; Signal transducer and activator of transcription 3 (Homo sapiens, UniProt P40763); reported pIC50 was 5.16

====

system: NCI-H460; test: Antiproliferative activity against human NCI-H460 cells assessed as inhibition of cell growth incubated for 72 hrs by IncuCyte live-cell imaging analysis; assay type: functional, cell-based; details: NCI-H460, 72 h
observed property: IC50 (nM)
The response must be a number in nM with no trailing unit.

Input `COC(=O)Nc1ccc(C(=O)Nc2ccccc2OC)c(O)c1` . Output IC50: 2800
